The reported measurements were obtained from ChEMBL document CHEMBL4052600.

STUDY_TARGET: Phosphatidylinositol 4,5-bisphosphate 3-kinase catalytic subunit beta isoform (Homo sapiens, UniProt P42338)
Sequence (P42338 whole entry, canonical isoform): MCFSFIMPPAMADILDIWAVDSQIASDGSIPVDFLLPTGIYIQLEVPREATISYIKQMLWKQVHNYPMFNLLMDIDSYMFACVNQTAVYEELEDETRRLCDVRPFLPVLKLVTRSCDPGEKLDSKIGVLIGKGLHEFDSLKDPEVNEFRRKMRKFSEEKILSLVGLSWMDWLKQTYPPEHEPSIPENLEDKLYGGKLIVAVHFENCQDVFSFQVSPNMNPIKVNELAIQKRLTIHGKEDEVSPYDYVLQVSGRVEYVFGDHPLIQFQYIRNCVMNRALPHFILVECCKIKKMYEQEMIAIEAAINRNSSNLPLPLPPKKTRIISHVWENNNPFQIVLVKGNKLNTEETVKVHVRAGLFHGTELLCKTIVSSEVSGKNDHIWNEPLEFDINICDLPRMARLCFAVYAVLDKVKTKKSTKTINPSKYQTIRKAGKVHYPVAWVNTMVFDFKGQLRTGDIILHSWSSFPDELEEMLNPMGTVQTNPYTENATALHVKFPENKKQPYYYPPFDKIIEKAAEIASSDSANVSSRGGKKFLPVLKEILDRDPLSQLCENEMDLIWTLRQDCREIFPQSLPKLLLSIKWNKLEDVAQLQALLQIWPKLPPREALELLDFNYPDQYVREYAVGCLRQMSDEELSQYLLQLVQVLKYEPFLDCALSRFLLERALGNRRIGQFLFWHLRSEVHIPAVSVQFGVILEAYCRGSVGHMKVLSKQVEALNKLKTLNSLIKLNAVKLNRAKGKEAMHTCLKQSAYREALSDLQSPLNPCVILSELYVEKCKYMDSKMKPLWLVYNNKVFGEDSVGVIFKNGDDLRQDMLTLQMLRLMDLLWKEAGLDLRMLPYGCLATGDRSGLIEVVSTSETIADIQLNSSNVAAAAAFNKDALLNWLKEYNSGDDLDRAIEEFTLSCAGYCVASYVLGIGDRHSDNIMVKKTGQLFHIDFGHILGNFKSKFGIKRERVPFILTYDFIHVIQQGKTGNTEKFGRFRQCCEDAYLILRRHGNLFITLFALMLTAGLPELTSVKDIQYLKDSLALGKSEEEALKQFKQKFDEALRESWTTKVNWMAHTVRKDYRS
METHOD_DESCRIPTION: Inhibition of PI3Kbeta (unknown origin) using PIP2 as substrate preincubated for 15 mins followed by substrate addition measured after 60 mins in presence of ATP by HTRF method
Documented IC50 across a set of compounds

# COMPOUND, IC50 [nM]
rows = [
    ("Cc1nncn1C1CCN(Cc2cc3nc(-c4cccc5[nH]ccc45)nc(N4CCOCC4)c3s2)CC1", 398),
    ("Oc1cccc(-c2nc(N3CCOCC3)c3sc(CN4CCC(n5cnnc5C(F)(F)F)CC4)cc3n2)c1", 100),
    ("FC(F)(F)c1nncn1C1CCN(Cc2cc3nc(-c4cccc5[nH]ccc45)nc(N4CCOCC4)c3s2)CC1", 794),
    ("Cc1nnc2n1[C@H]1CCN(Cc3cc4nc(-c5cccc6[nH]ncc56)nc(N5CCOCC5)c4s3)C[C@H]1CC2 (relative stereo)", 1260),
    ("Oc1cccc(-c2nc(N3CCOCC3)c3sc(CN4CC[C@H]5[C@@H](CCc6nnc(C(F)(F)F)n65)C4)cc3n2)c1 (relative stereo)", 50.1),
    ("FC(F)(F)c1nnc2n1[C@H]1CCN(Cc3cc4nc(-c5cccc6[nH]ncc56)nc(N5CCOCC5)c4s3)C[C@@H]1CC2 (relative stereo)", 631),
    ("Oc1cccc(-c2nc(N3CCOCC3)c3sc(CN4CC[C@H]5[C@H](CCc6nnc(C(F)(F)F)n65)C4)cc3n2)c1 (relative stereo)", 50.1),
]
